Values compiled from patent US20230120736A1.

Test system: cynomolgus monkey CD98 ECD
Sequence (as listed by the source): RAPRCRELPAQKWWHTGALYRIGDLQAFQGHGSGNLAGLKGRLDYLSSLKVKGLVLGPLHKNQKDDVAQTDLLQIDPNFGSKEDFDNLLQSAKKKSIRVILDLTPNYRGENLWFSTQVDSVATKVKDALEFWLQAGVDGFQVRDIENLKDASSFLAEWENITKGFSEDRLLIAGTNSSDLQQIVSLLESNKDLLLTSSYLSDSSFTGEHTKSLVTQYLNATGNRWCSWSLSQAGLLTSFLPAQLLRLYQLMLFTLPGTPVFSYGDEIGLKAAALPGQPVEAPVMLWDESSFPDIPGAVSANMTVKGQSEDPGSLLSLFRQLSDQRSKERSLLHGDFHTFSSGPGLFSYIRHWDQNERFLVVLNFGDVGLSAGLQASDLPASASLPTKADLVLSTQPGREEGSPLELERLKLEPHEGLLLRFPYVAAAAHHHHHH
Assay: Biacore surface plasmon resonance binding kinetics (anti-Fc capture)
Conditions: cyCD98 ECD
Attribute Measured: ka (M⁻¹ s⁻¹)

INSERT INTO assay_data (molecule, observed_value) VALUES
  ('huAb15v3 (antibody, V domains shown) VH: EVQLVESGGGVVQPGRSLRLSCAASGFTFSDYTMAWVRQAPGKGLEWVATIIYSGRGTYYRDAVKGRFTISRDNSKSTLYLQMNSLRAEDTAVYYCARQSDDTYYYWGYFDYWGQGTMVTVSS VL: DIVMTQSPDSLAVSLGERATINCKSSQSLLFSGNQKNYLAWYQQKPGQSPKLLIYWASTRQSGVPDRFSGSGSGTDFTLTIRSLQAEDVAIYYCQQYYGSPYTFGQGTKLEIK', 18000),
  ('huAb109: "heavy chain variable sequence of huAb109 is provided in SEQ ID NO: 116"; "light chain variable sequence ... in SEQ ID NO: 117" (antibody, V domains shown) VH: EVQLVESGGGLVQPGGSLRLSCAASGFTFSDYTMAWVRQAPGKGLEWVATIIYDARGTYYRDAVKGRFTISRDNAKNTLYLQMNSLRAEDTAVYYCARQSDDTYYYWGYFDYWGQGTMVTVSS VL: DIVMTQTPLSLPVTPGEPASINCKSSQSLLFSGNQKNYLAWYLQKPGQSPQLLIYWASTRQSGVPDRFSGSGSGTDFTLKISRVEAEDVGIYYCQQYYSSPYTFGQGTKLEIK', 26000);
